- experimental-system: c-Src SH2;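 note: peptide library displayed on the E. coli surface as eCPX fusions, selected cells deep-sequenced, score is each peptide's frequency after selection divided by its frequency in the input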
- protocol-details: SH2 binding enrichment of the phosphorylated peptide, bacterial display (enrichment ratio); higher = better substrate or ligand; peptides without Tyr show the background
endpoint-label: SH2 binding enrichment

# count of solved cases: 4
Request: For TFGNLYGSRKQ [YIPF7_Y59_A54T_YF] , write its SH2 binding enrichment.
Result: 0.348

Request: For CTTVHYNYMCN [TP53_Y234_I232V] , write its SH2 binding enrichment.
Result: 6.3

Request: For SGPRRYTIAAL [TTR_Y125] , write its SH2 binding enrichment.
Result: 0.533

Request: For VMTSKYRGGGG [HBA1_Y141_L137M] , write its SH2 binding enrichment.
Result: 0.691

[P] TDRNLYSKNLV [CFAP58_Y501_S496T]
[Q] EELLRYAIVTP [POC5_Y37_H36R]
Request: Would you let me know which has the greater SH2 binding enrichment value, P or Q ? Your choice should be expressed through its label.
Result: Q
(Q: 9.68, P: 0.408)

[I] EDKSIYRRGAR [PRKCI_Y125]
[II] MVIPNYSSWTE [UROC1_Y185_R188W]
Request: Would you let me know which has the greater SH2 binding enrichment value, I or II ? Your choice should be expressed through its label.
Result: II
